Would you kindly list IC50 for each of these compounds?
molecular target: MAT2A homodimer (Homo sapiens); construct: inferred from Ni sepharose purification with imidazole elution; test: MAT2A inhibition (biochemical, liberated phosphate, PiColorLock Gold); conditions: recombinant MAT2A homodimer; IC50 bin with Max Inh.; read-out: Enzyme Inhibition Bin
Sequence (P31153 whole entry): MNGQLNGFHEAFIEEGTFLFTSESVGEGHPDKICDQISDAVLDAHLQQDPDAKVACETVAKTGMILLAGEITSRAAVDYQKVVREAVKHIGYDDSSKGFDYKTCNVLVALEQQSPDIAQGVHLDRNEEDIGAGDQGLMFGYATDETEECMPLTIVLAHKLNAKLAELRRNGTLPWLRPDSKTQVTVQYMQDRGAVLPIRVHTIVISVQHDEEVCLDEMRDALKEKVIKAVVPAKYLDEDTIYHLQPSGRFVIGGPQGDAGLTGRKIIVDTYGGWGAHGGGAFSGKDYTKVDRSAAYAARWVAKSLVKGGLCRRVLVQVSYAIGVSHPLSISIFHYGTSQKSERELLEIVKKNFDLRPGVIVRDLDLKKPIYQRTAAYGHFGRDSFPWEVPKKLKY

I'm curious: which IC50 was measured for `Cc1c(C#N)c2nn(-c3ccc4nn(C)cc4c3)c(=O)c(-c3ccc(C4CC4)nc3)c2n1CC1CC1` tested on MAT2A homodimer (Homo sapiens)?
> 10000 nM

Form field - read-out: IC50; system: MAT2A homodimer (Homo sapiens); submitted item: `Cn1cc2cc(-n3nc4c(C#N)cn(CC5CC5)c4c(-c4ccc(Cl)cc4)c3=O)ccc2n1`
< 100 nM

API: value(readout=IC50, system=MAT2A homodimer (Homo sapiens)) for record `[2H]C([2H])([2H])Oc1ccc(-c2c(=O)n(-c3ccc4nn(C)cc4c3)nc3c(C#N)cn(CC4CC4)c23)cc1`
< 100 nM

Item `CN(C)C(=O)c1cn(CC2CC2)c2c(-c3ccc(C4CC4)nc3)c(=O)n(-c3ccc4nn(C)cc4c3)nc12` with MAT2A homodimer (Homo sapiens) - IC50?
< 1000 nM

Report IC50 for `CCc1ccc(-c2c(=O)n(-c3ccc4nc(C)n(C)c4c3)nc3ccn(CC4CC4)c23)cn1` tested on MAT2A homodimer (Homo sapiens).
< 100 nM

For MAT2A homodimer (Homo sapiens), provide IC50 of `Cn1cc2cc(-n3nc4c(S(N)(=O)=O)cn(CC5CC5)c4c(-c4ccc(OC(F)F)cc4)c3=O)ccc2n1` please.
< 100 nM

Identify the measured IC50 of `Cn1cc2cc(-n3nc4ccn(CC5CC5)c4c(-c4cncc(C(F)(F)F)c4)c3=O)ccc2n1` for MAT2A homodimer (Homo sapiens).
> 10000 nM

Reported IC50 for MAT2A homodimer (Homo sapiens), given `Cn1cc2cc(-n3nc4ccn(CC5CC5)c4c(-c4ccc(C5CC5)nc4)c3=O)ccc2n1` ?
< 100 nM

Under MAT2A homodimer (Homo sapiens): IC50 value of `[2H]C([2H])([2H])Oc1ccc(-c2c(=O)n(-c3ccc4nn(C)cc4c3)nc3c2n(CC2CC2)c(=O)n3C)cc1` ?
< 100 nM

Missing value: IC50, MAT2A homodimer (Homo sapiens), entry `Cn1cc2cc(-n3nc4c(C#N)cn(CC5CC5)c4c(-c4ccc(CO)nc4)c3=O)ccc2n1` . Fill in?
< 100 nM

I'm curious: which IC50 was measured for `CN1CCOc2ccc(-n3nc4ccn(CC5CC5)c4c(-c4ccc(OC(F)F)cc4)c3=O)cc21` tested on MAT2A homodimer (Homo sapiens)?
< 100 nM

Request: IC50, test system MAT2A homodimer (Homo sapiens), entry `Cn1cc2cc(-n3nc4c(C(N)=O)cn(CC5CC5)c4c(-c4ccc(Cl)cc4)c3=O)ccc2n1`
< 100 nM

What is its IC50 for MAT2A homodimer (Homo sapiens)? Entry: `COc1ccc(-c2c(=O)n(-c3ccc4nn(C)cc4c3)nc3ncn(CC4CC4)c23)cc1`
< 100 nM

Write down the reported IC50 of `Cn1cc2cc(-n3nc4c(C#N)cn(CC5CC5)c4c(-c4ccc([C@@H]5CC5(F)F)nc4)c3=O)ccc2n1` , test system: MAT2A homodimer (Homo sapiens).
< 100 nM

Lab request: please report IC50 under test system MAT2A homodimer (Homo sapiens) for `Cn1cc2cc(-n3nc4ccn(CC5CC5)c4c(-c4ccc(C(F)(F)F)nc4)c3=O)ccc2n1`
< 100 nM

What IC50 appears in the records for this compound with MAT2A homodimer (Homo sapiens)? `CNS(=O)(=O)c1cn(CC2CC2)c2c(-c3ccc(C4CC4)nc3)c(=O)n(-c3ccc4nn(C)cc4c3)nc12`
> 10000 nM

What IC50 appears in the records for this compound with MAT2A homodimer (Homo sapiens)? `Cn1cc2cc(-n3nc4c(C#N)cn(CC5CC5)c4c(-c4ccc([C@H]5CC5(F)F)nc4)c3=O)ccc2n1`
< 100 nM

Form entry - test system: MAT2A homodimer (Homo sapiens); read-out: IC50; compound: `C#Cc1cn(CC2CC2)c2c(-c3ccc(C4CC4)nc3)c(=O)n(-c3ccc4nn(C)cc4c3)nc12`
< 100 nM

# get_value(readout= IC50, system= MAT2A homodimer (Homo sapiens)) for `Cn1cc2cc(-n3nc4c(S(C)(=O)=O)cn(CC5CC5)c4c(-c4ccc(C5CC5)cc4)c3=O)ccc2n1`
< 1000 nM

For the record `Cn1cc2cc(-n3nc4ccn(CC5CC5)c4c(-c4ccc(C(N)=O)nc4)c3=O)ccc2n1` , what value of IC50 is listed for MAT2A homodimer (Homo sapiens)?
< 100 nM

Give MAT2A homodimer (Homo sapiens) IC50 for `COc1ccc(-c2c(=O)n(-c3ccc4nn(C)cc4c3)nc3ccn(CC4CC4)c23)cn1`
< 100 nM

Form entry - test system: MAT2A homodimer (Homo sapiens); read-out: IC50; compound: `Cn1cc2cc(-n3nc4c(C#N)cn(C[C@@H]5CC5(F)F)c4c(-c4ccc(C5CC5)nc4)c3=O)ccc2n1`
< 100 nM

Item `Cc1ccc(-c2c(=O)n(-c3ccc4nn(C)cc4c3)nc3c(CO)cn(CC4CC4)c23)cn1` with MAT2A homodimer (Homo sapiens) - IC50?
< 100 nM

Under MAT2A homodimer (Homo sapiens): IC50 value of `Cc1ccc(-c2c(=O)n(-c3ccc4nn(C)cc4c3)nc3c(C#N)c(C)n(CC4CC4)c23)cn1` ?
> 10000 nM

Lab request: please report IC50 under test system MAT2A homodimer (Homo sapiens) for `[2H]C([2H])([2H])Oc1ccc(-c2c(=O)n(-c3ccc4nn(C)cc4c3)nc3c(C(=O)NC)cn(CC4CC4)c23)cc1`
< 100 nM

Param readout = IC50; param system = MAT2A homodimer (Homo sapiens); param query = `Cn1cc2cc(-n3nc4c(S(N)(=O)=O)cn(CC5CC5)c4c(-c4ccc(C5CC5)cc4)c3=O)ccc2n1` ; response: value
< 100 nM

What IC50 appears in the records for this compound with MAT2A homodimer (Homo sapiens)? `Cn1cc2cc(-n3nc4c(C(F)(F)F)cn(CC5CC5)c4c(-c4ccc(C5CC5)nc4)c3=O)ccc2n1`
< 100 nM

Reported IC50 for MAT2A homodimer (Homo sapiens), given `CNC(=O)c1cn(CC2CC2)c2c(-c3ccc(C4CC4)nc3)c(=O)n(-c3ccc4nn(C)cc4c3)nc12` ?
< 100 nM

Lab note: need IC50 with MAT2A homodimer (Homo sapiens) for entry `Cn1nc2ccc(-n3nc4ccn(CC5CC5)c4c(-c4ccc(C5CC5)nc4)c3=O)cc2c1C(F)(F)F` , please look it up.
< 100 nM
